- System: KRas G12D mutant
- TEST SUMMARY: Ras GTP Binding Domain Inhibition Assay (Ras Superfamily Assay)
- CONDITION NOTES: 20 μM compound, with SOS
ENDPOINT NAME: KRas G12D mutant + SOS: % inh.

INSERT INTO measurements (compound, reported_value) VALUES
  ('COCC1CCN(c2nc(-c3nccn3C)nn3cc(-c4ccn(C(C)C)n4)c(C)c23)C1 (racemic) [Compound 2]', '0 (0 = 0% inhibition)');

Consider now this further compound.
Challenge: # query: KRas G12D mutant + SOS: % inh. of entry CO[C@H]1CC[C@@H](Nc2nc(-c3ccccn3)nn3cc(-c4ccn(C(C)C)n4)c(-c4ccccc4)c23)C1 (racemic) [Compound 24]
Response given: 0 (0 = 0% inhibition)
